Ref: patent US20240238423A9

- assay system: Human BCL-XL protein (N-terminal HiBiT tagged BCL-XL in HT1080 cells) (Homo sapiens)
- Construct: expressed in transfected cells; host or cells: HT-1080 (ATCC CCL-121), stably transduced with lentivirus pLV-UBC-N-HiBiT-BCL-XL-PGK-puro and selected with puromycin
- Sequence (Q07817 whole entry): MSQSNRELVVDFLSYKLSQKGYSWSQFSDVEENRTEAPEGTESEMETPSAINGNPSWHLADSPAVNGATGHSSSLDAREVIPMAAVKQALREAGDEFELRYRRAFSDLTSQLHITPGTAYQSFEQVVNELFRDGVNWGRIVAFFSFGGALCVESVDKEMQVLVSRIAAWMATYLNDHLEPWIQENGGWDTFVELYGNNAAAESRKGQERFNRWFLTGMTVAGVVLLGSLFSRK
- method summary: HiBiT based degradation assay
- Format: cell-based
- condition set: BCL-XL degradation normalized with DMSO control; HT1080 cells expressing HiBiT-BCL-XL; 6 h

| compound | assay system | Ymin (6 h) |
| --- | --- | --- |
| Cc1c(OCCN2CCN(CC(=O)N3CCN(c4ccc5c(C6CCC(=O)NC6=O)nn(C)c5c4)CC3)CC2)cccc1-c1ccc(N2CCc3cccc(C(=O)Nc4nc5ccccc5s4)c3C2)nc1C(=O)O (stereo not drawn) | Human BCL-XL protein (N-terminal HiBiT tagged BCL-XL in HT1080 cells) (Homo sapiens) | B (50% ≤ Ymin < 70%) |
| Cc1c(OCCCCCCCCCN2CCN(c3ccc4c(C5CCC(=O)NC5=O)nn(C)c4c3)CC2)cccc1-c1ccc(N2CCc3cccc(C(=O)Nc4nc5ccccc5s4)c3C2)nc1C(=O)O (stereo not drawn) | Human BCL-XL protein (N-terminal HiBiT tagged BCL-XL in HT1080 cells) (Homo sapiens) | B (50% ≤ Ymin < 70%) |
